# Test system: L1210 leukemia ip in BDF1 mice, survival T/C
# test: NCI In Vivo Anticancer Drug Screen. Data for tumor model L1210 Leukemia (intraperitoneal) in B6D2F1 (BDF1) mice
# condition context: endpoint: mean survival time; dose: 200.0 mg/kg/injection; schedule: Q04DX003 (ip); vehicle: Klucel (hydroxypropylcellulose) (HPC); higher = longer survival
Inconclusive results and toxic doses are left out.
assay endpoint: T/C

Which T/C is listed for "CN1C(=O)N(Br)C(C)(C)C1=O" ?
97 % of control

Which T/C is listed for "COc1ccc(C(=O)NCCc2ccccc2)cc1" ?
105 % of control

Which T/C is listed for OC(Br)C1C(c2ccccc2)N1C1CCCCC1 (stereo not drawn) ?
91 % of control

Which T/C is listed for "O=C1c2ccccc2C(=O)c2cc3cc(Cl)ccc3cc21" ?
87 % of control

Which T/C is listed for "O=[N+]([O-])c1ccc(N=Cc2ccccc2)cc1" ?
96 % of control

Which T/C is listed for CC(C)(C)C1CCC(OC=O)CC1 (stereo not drawn) ?
93 % of control

Which T/C is listed for "[N-]=[N+]=C1C(=O)NN=C1c1ccccc1" ?
98 % of control

Which T/C is listed for COC1=CC2C3=C(C(NC=O)CCc4cc(OC)c(OC)c(OC)c43)C2C1=O (stereo not drawn) ?
100 % of control

Which T/C is listed for "O=c1cc(-c2ccc(Cl)cc2)oc(-c2ccc(Cl)cc2)c1" ?
92 % of control

Which T/C is listed for O=C(OC12CCCCC1CCCC2)c1ccc([N+](=O)[O-])cc1 (stereo not drawn) ?
101 % of control

Which T/C is listed for "CCCCCCC/C=C/c1c(C)[nH]c2ccccc2c1=O" ?
93 % of control

Which T/C is listed for "CCCCCC#CC(=O)O" ?
98 % of control

Which T/C is listed for "COC(=O)c1cc(SC)nc(SC)n1" ?
111 % of control
